This collection of values is drawn from PubChem BioAssay.

assay.summary: growth of efflux-deficient E. coli DRC39 – strain DRC39, OD650, 24 h, E. coli filamentation inducers, primary screen (AID 1178);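 note: growth measured as culture turbidity by optical density at 650 nm; test concentration not given here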
experimental.conditions: E. coli DRC39 acrAB; higher = more signal, called active from +8 up or from −8 down unless noted
Calls of active or inactive are those of the source.
# maps each entry to its z-score

Query :: # lookup: z-score of `COC(=O)NCC=Cc1nc(CCC=CC(=O)O[C@H]2CC3CC(=O)O[C@@H](C=CCC(C)C)C[C@@H]4CC[C@H](C)[C@@H](C[C@@H](OC)C[C@H](C2)O3)O4)co1`
Result :: 0.523 (inactive)

Query :: # lookup: z-score of CN1CCC(c2ccc(CO)cc2)=CC1C1CC1 (configuration not stated)
Result :: 0.501 (inactive)

Query :: # lookup: z-score of C=C(CC1(C(C)NP(=O)(c2ccccc2)c2ccccc2)CC1)c1ccccc1 (configuration not stated)
Result :: -0.628 (inactive)

Further cases:
Query :: # lookup: z-score of COc1cc2c(cc1O)C(C)N(C)CC2 (configuration not stated)
Result :: 0.516 (inactive)

Query :: # lookup: z-score of `COC(=O)[C@@]1(Cc2ccc(F)cc2)[C@H]2c3cc(C(=O)N(C)C)[nH]c3C[C@H]2CN1C(=O)c1ccccc1`
Result :: -0.119 [setting not given] (inactive)

Query :: # lookup: z-score of O=P(c1ccccc1)(c1ccccc1)N1CC2(CC2)CC(O)(c2ccccc2)C1 (configuration not stated)
Result :: -0.32 (inactive)

Query :: # lookup: z-score of `CCOC(=O)[C@H]1CC=C2C(=O)Oc3ccccc3[C@@H]21`
Result :: -0.475 (inactive)

---

assay.summary: viability profiling in MM1S myeloma cells – cell-based, resazurin fluorescence, basal, 24 h, PK04 Diversity Set, profiling panel (AID 1174);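 note: MM1S multiple myeloma cell line; test concentration not given here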
experimental.conditions: higher = more signal, called active from +8 up or from −8 down unless noted
reported.endpoint: z-score
Respond numerically, and do not add a unit to the figure.

Would you please look over these solved cases?
Query :: # lookup: z-score of `COC(=O)[C@H]1[C@@H](O)[C@@]2(O)c3c(OC)cc(OC)cc3O[C@@]2(c2ccc(OC)cc2)[C@@H]1c1ccccc1`
Result :: -3.65

Query :: # lookup: z-score of `CN1CCc2nc(CO)c(CO)cc2C1`
Result :: 0.692

Query :: # lookup: z-score of `COC(=O)[C@H]1[C@H](c2ccccc2)C(=O)[C@]2(O)c3ccccc3O[C@@]12c1ccccc1`
Result :: -0.417

Query :: # lookup: z-score of CCCc1cc2c(n1Cc1ccc(C)cc1)C(C)C1CN(C(=O)c3ccccc3)C(C)(C(=O)OC)C21 (stereo not drawn)
Result :: -1.04

Query :: # lookup: z-score of C=C(CC1(C(C)NP(=O)(c2ccccc2)c2ccccc2)CC1)c1ccccc1 (stereo not drawn)
Result :: 0.794

Further cases:
Query :: # lookup: z-score of CN1CCC(c2ccc(CO)cc2)=CC1c1cccs1 (stereo not drawn)
Result :: -0.694

Query :: # lookup: z-score of `CCCC=C(CCC)[C@@H](NP(=O)(c1ccccc1)c1ccccc1)c1ccccc1`
Result :: 1.16

Query :: # lookup: z-score of `CCOC(=O)[C@H]1CC=C2C(=O)Oc3ccc(Br)cc3[C@@H]21`
Result :: -0.595

---

assay.summary: optical density shifts of acrAB sulA E. coli – strain DRC41, OD650, 48 h, E. coli filamentation inducer project, primary screen (AID 1152);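 note: E. coli MC1000 strain DRC41 lacking acrAB efflux pump and sulA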
experimental.conditions: higher = more signal, called active from +8 up or from −8 down unless noted
# maps each entry to its z-score
Respond numerically, and do not add a unit to the figure.

Would you please look over these solved cases?
Query :: # lookup: z-score of `C[C@@H]1Cc2c(cnc3c2CN(C)CC3)CO1`
Result :: -0.397

Query :: # lookup: z-score of CCCc1cc2c(n1CCO)C(C)C1CN(C(=O)c3ccccc3)C(C)(C(=O)OC)C21 (configuration not stated)
Result :: -1.14

Query :: # lookup: z-score of C=C(CC1(C(C)NP(=O)(c2ccccc2)c2ccccc2)CC1)c1ccccc1 (configuration not stated)
Result :: -1.67

Query :: # lookup: z-score of CCCc1cc2c(n1Cc1cccc(Cl)c1)C(C)C1CN(C(=O)c3ccccc3)C(C)(C(=O)OC)C21 (configuration not stated)
Result :: -1.69

Query :: # lookup: z-score of CCCc1cc2c(n1Cc1ccco1)C(C)C1CN(C(=O)c3ccccc3)C(C)(C(=O)OC)C21 (configuration not stated)
Result :: -2.11

Further cases:
Query :: # lookup: z-score of `COC(=O)[C@H]1[C@@H](O)[C@@]2(O)c3c(OC)cc(OC)cc3O[C@@]2(c2ccc(OC)cc2)[C@@H]1c1ccccc1`
Result :: 0.662

Query :: # lookup: z-score of `COC(=O)[C@@]1(Cc2ccccc2)[C@H]2c3cc(C(=O)N(C)C)[nH]c3C[C@H]2CN1C(=O)c1ccccc1`
Result :: -1.41

---

assay.summary: small molecules captured by biotinylated probe aFSTL3 – biochemical, small-molecule microarray, fluorescence 635/667, stem cell growth factor project, primary screen (AID 1064);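 note: measures binding of the biotinylated anti-FSTL3 antibody to printed compounds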
experimental.conditions: higher = more signal; small-molecule microarray, probe aFSTL3, fluorescence unless noted
composite z-score vs 0.2: at or above is fulfilled, below is not fulfilled.

Example cases with answers are listed next.
Query :: Please check the record `CCOC(=O)[C@H]1CC=C2C(=O)Oc3ccccc3[C@@H]21` and state if its composite z-score is at or above 0.2.
Result :: not fulfilled

Query :: Please check the record CCCc1cc2c(n1Cc1ccc(C)cc1)C(C)C1CN(C(=O)c3ccccc3)C(C)(C(=O)OC)C21 (stereo not given) and state if its composite z-score is at or above 0.2.
Result :: fulfilled

Query :: Please check the record CCCc1cc2c(n1CCO)C(C)C1CN(C(=O)c3ccccc3)C(C)(C(=O)OC)C21 (stereo not given) and state if its composite z-score is at or above 0.2.
Result :: fulfilled

Query :: Please check the record `CCOC(=O)[C@H]1CC=C2C(=O)Oc3ccc(Br)cc3[C@@H]21` and state if its composite z-score is at or above 0.2.
Result :: not fulfilled

# input for lookup
Query :: Please check the record `C[C@H]1O[C@H]2C3=C(C(=O)[C@@H]4O[C@@H]4[C@@H]3O)[C@@H]1[C@@H]1[C@@H](C)OC=C3[C@@H](O)[C@H]4O[C@H]4C(=O)[C@]312` and state if its composite z-score is at or above 0.2.
Result :: not fulfilled

---

assay.summary: COS7 lysate on small-molecule microarray, probe aHis, 635 nm (AID 1123);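 note: z-score combines 667nm fluorescence intensity with signal-to-noise per printed compound spot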
experimental.conditions: higher = more signal; small-molecule microarray, COS7 cell lysate, probe aHis, fluorescence unless noted
reported.endpoint: composite z-score

Would you please look over these solved cases?
Query :: # lookup: composite z-score of COc1cc2c(cc1O)C(C)N(C)CC2 (configuration not stated)
Result :: 0.594

Query :: # lookup: composite z-score of `COC(=O)[C@H]1C(=O)c2ccccc2O[C@@](C(=O)OC)(c2ccccc2)[C@@H]1c1ccccc1`
Result :: -0.583

Query :: # lookup: composite z-score of `CCCC[C@@H]1C[C@H]1[C@@H](NP(=O)(c1ccccc1)c1ccccc1)c1ccc(Cl)cc1`
Result :: 0.807

Further cases:
Query :: # lookup: composite z-score of `C[C@@H]1OC=C2[C@@H](O)[C@H]3O[C@H]3C(=O)[C@]23[C@H]1[C@H]1C2=C([C@@H](O)[C@H]4O[C@H]4C2=O)[C@@H]3O[C@@H]1C`
Result :: -0.934

Query :: # lookup: composite z-score of `C=C(CC1(CNP(=O)(c2ccccc2)c2ccccc2)CC1)c1ccccc1`
Result :: 1.2

Query :: # lookup: composite z-score of `CCOC(=O)[C@H]1CC=C2C(=O)Oc3ccccc3[C@@H]21`
Result :: 0.468

Query :: # lookup: composite z-score of `COC(=O)[C@@]1(Cc2ccc(F)cc2)[C@H]2c3cc(C(=O)N(C)C)[nH]c3C[C@H]2CN1C(=O)c1ccccc1`
Result :: 0.694 [setting not given]

Query :: # lookup: composite z-score of C=C(CC1(C(C)NP(=O)(c2ccccc2)c2ccccc2)CC1)c1ccccc1 (configuration not stated)
Result :: 3.14

Query :: # lookup: composite z-score of `COC(=O)NCC=Cc1nc(CCC=CC(=O)O[C@H]2CC3CC(=O)O[C@@H](C=CCC(C)C)C[C@@H]4CC[C@H](C)[C@@H](C[C@@H](OC)C[C@H](C2)O3)O4)co1`
Result :: -0.263

Query :: # lookup: composite z-score of `COc1cc2c(cc1O)C=[N+](C)CC2`
Result :: -0.4

Query :: # lookup: composite z-score of O=P(c1ccccc1)(c1ccccc1)N1CC2(CC2)CC(O)(c2ccccc2)C1 (configuration not stated)
Result :: 3.3

Query :: # lookup: composite z-score of `CCc1cc2c(nc1CC)CCN(CCC(C)=NOC)C2`
Result :: 0.45

Query :: # lookup: composite z-score of `COC(=O)[C@@]1(Cc2ccccc2)[C@H]2c3cc(C(=O)N(C)C)n(C)c3C[C@H]2CN1C(=O)c1ccccc1`
Result :: 3.26

Query :: # lookup: composite z-score of CN1CCC(c2ccc(CO)cc2)=CC1c1cccs1 (configuration not stated)
Result :: -0.563

Query :: # lookup: composite z-score of `COC(=O)[C@@]1(Cc2ccccc2)[C@H]2c3cc(C(=O)N(C)C)[nH]c3C[C@H]2CN1C(=O)c1ccccc1`
Result :: -0.0769

Query :: # lookup: composite z-score of CCCc1cc2c(n1Cc1ccc(C)cc1)C(C)C1CN(C(=O)c3ccccc3)C(C)(C(=O)OC)C21 (configuration not stated)
Result :: 2.02

Query :: # lookup: composite z-score of CN1CCC(c2ccc(CO)cc2)=CC1C1CC1 (configuration not stated)
Result :: -0.106
